Measured AC50 (UniProt P29274)
Sequence (P29274 whole entry): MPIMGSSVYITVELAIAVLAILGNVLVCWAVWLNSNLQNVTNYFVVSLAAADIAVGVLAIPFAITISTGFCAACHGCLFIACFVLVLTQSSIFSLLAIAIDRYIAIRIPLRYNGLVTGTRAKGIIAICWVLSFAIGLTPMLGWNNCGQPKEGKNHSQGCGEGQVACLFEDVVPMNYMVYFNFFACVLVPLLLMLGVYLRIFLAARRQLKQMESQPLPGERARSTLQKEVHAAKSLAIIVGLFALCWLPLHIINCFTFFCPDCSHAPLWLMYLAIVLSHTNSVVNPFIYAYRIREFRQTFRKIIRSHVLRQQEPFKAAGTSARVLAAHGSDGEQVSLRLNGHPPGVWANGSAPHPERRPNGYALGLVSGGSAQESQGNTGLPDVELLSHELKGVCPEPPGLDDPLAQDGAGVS

Recorded AC50, per entry:
>  <compound>
CN(C)/N=N/c1[nH]cnc1C(N)=O [DACARBAZINE]

>  <AC50>
> 10 µM

$$$$
>  <compound>
NCC[C@H](O)C(=O)N[C@@H]1C[C@H](N)[C@@H](O[C@H]2O[C@H](CN)[C@@H](O)[C@H](O)[C@H]2O)[C@H](O)[C@H]1O[C@H]1O[C@H](CO)[C@@H](O)[C@H](N)[C@H]1O [AMIKACIN]

>  <AC50>
> 10 µM

$$$$
>  <compound>
O=[N+]([O-])c1cn2c(n1)OC[C@@H](OCc1ccc(OC(F)(F)F)cc1)C2 [PRETOMANID]

>  <AC50>
> 30 µM

$$$$
>  <compound>
O=C(O[C@H]1C[C@H]2CC[C@@H](C1)[N+]21CCCC1)C(O)(c1ccccc1)c1ccccc1 [TROSPIUM]

>  <AC50>
> 30 µM

$$$$
>  <compound>
CCOC(=O)[C@H](CCc1ccccc1)N[C@@H](C)C(=O)N1[C@H](C(=O)O)C[C@@H]2CCC[C@@H]21

>  <AC50>
> 30 µM

$$$$
>  <compound>
COc1ccc(C(=O)Nc2ccccc2CCC2CCCCN2C)cc1 (configuration not stated) [ENCAINIDE]

>  <AC50>
> 30 µM

$$$$
>  <compound>
CC=CC(=O)N(CC)c1ccccc1C

>  <AC50>
> 10 µM

$$$$
>  <compound>
COC(=O)[C@H]1[C@H]2C[C@@H]3c4[nH]c5cc(OC)ccc5c4CCN3C[C@H]2C[C@@H](OC(=O)/C=C/c2cc(OC)c(OC)c(OC)c2)[C@@H]1OC [RESCINNAMINE]

>  <AC50>
> 30 µM

$$$$
>  <compound>
Nc1nc(Cl)nc2c1ncn2[C@H]1C[C@H](O)[C@@H](CO)O1 [CLADRIBINE]

>  <AC50>
> 30 µM

$$$$
>  <compound>
c1ccc([C@H]2CN3CCSC3=N2)cc1 [LEVAMISOLE]

>  <AC50>
> 30 µM

$$$$

Ask: Reported AC50 for Nc1nc(/C(=C/CC(=O)O)C(=O)N[C@@H]2C(=O)N3C(C(=O)O)=CCS[C@H]23)cs1 [CEFTIBUTEN] : what is it?
Result: > 30 µM

Ask: Please answer likewise for CC[C@@H]1C(=O)OC[C@@H]1Cc1cncn1C [PILOCARPINE]
Result: > 30 µM

Ask: Please answer likewise for O=C(O)C[C@H](O)C[C@H](O)/C=C/c1c(C2CC2)nc2ccccc2c1-c1ccc(F)cc1 [PITAVASTATIN]
Result: > 30 µM

Ask: Please answer likewise for Clc1ccc(CCCOCCCN2CCCCC2)cc1 [PITOLISANT]
Result: > 30 µM

Ask: Please answer likewise for COc1ccc2c3c1O[C@H]1C(=O)CC[C@@]4(O)[C@@H](C2)N(C)CC[C@]314 [OXYCODONE]
Result: > 30 µM

Ask: Please answer likewise for CC(Oc1c(Cl)cccc1Cl)C1=NCCN1 (configuration not stated) [LOFEXIDINE]
Result: > 30 µM

Ask: Please answer likewise for CCOC(=O)OC(C)OC1=C(C(=O)Nc2ccccn2)N(C)S(=O)(=O)c2ccccc21 (configuration not stated) [AMPIROXICAM]
Result: > 30 µM
